Quick reference for activity at 20 µM among some compounds
# Test system: HL-60 cells
# PROTOCOL: Copper determination in chelator treated cells (atomic absorption)
# Format: cell-based, human
# SETUP_CONDITIONS: Homo sapiens, HL-60; 20 μM chelator; read-out: Average Intracellular Cu (% of control)
Expressed in %, but write only the number.

Here are 3 compounds together with their reported answers.
C1CNCCNCCN1.Cl.Cl.Cl [1,4,7-Triazacyclononane trihydrochloride] :: 32
NCCCNCCCNCCCN :: 69
NCCNCCNCCNCCN :: 64

Query (compound): O=C1CC(=O)NCCNCCCNCCN1 ; field requested: activity at 20 µM
77

Query (compound): C1CNCCCNCCNCCCNC1 ; field requested: activity at 20 µM
27

Query (compound): NCCNCCNCCN ; field requested: activity at 20 µM
56

Query (compound): C1CNCCOCCNCCN1 ; field requested: activity at 20 µM
79

Query (compound): C1CNCCNCCNCCN1 ; field requested: activity at 20 µM
56

Query (compound): C1COCCNCCOCCN1 ; field requested: activity at 20 µM
72
